Values were extracted from patent US10287269B2.

# experimental system: Rhesus PDE2A3 (Macaca mulatta, UniProt B3VTJ2)
# Construct: made in house; host or cells: AD293 cells, transient transfection, pcDNA3.3-TOPO; lysate supernatant used as enzyme
# Sequence (B3VTJ2 1-941): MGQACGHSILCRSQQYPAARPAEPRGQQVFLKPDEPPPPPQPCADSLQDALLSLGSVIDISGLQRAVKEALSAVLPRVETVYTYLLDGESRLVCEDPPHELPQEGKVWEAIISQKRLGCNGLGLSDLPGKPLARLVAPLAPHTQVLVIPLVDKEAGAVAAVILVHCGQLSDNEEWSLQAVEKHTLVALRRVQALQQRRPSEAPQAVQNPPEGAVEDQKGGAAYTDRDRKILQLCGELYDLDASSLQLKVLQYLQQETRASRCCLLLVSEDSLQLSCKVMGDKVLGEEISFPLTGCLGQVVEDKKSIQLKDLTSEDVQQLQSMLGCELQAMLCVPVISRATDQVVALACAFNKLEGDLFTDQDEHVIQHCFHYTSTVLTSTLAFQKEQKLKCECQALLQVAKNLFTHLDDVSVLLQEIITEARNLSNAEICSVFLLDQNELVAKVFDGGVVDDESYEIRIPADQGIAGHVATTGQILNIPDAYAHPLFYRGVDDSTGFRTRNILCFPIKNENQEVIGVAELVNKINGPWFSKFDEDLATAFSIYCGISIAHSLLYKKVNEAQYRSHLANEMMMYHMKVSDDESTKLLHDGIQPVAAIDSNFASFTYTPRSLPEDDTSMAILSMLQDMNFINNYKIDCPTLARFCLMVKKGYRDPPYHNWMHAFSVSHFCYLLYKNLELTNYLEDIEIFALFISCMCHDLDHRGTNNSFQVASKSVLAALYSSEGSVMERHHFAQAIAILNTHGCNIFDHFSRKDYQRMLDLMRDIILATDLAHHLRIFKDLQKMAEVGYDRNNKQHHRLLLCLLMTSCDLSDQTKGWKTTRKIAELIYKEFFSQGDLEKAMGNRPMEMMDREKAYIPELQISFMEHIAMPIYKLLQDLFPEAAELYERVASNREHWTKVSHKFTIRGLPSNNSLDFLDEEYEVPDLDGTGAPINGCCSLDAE
# run description: PDE2 fluorescence polarization (IMAP FP) inhibition assay, rhesus enzyme
# Format: biochemical, rhesus macaque
# condition: Lab B; read-out: Rhesus PDE2 Ki (nM) Lab B
# Experimental: The activity of the compounds in accordance with the present invention as PDE2 inhibitors may be readily determined using a fluorescence polarization (FP) methodology (Huang, W., et al., J. Biomol Screen, 2002, 7: 215). In a typical experiment the PDE2 inhibitory activity of the compounds of the present invention was determined in accordance with the following experimental method. […] 0% of inhibition is determined by using DMSO (1% final concentrations). […]
Reported log10(Ki) values for the following compounds.
Please be aware that the numbers have been log10-transformed from Ki in nM.

Consider the reported log10(Ki) for these compounds:
{"columns": ["compound", "log10(Ki)"],
 "data": [
  ["Cc1nc(-n2cc(Cc3ccc(OC(F)(F)F)cc3)cn2)cc(=O)[nH]1", 3.47],
  ["Cc1nc(-c2cnn(C(C)c3ccc(OC(F)(F)F)cc3F)c2)cc(=O)[nH]1 (single isomer, unassigned) [Example 58]", 2.41],
  ["Cc1nc(-n2cc(C(C)c3ccc(OC(F)(F)F)cc3C)cn2)cc(=O)[nH]1 (stereo not shown)", 2.67]
]}

Entry COc1ccc(Cc2nc(-c3cnn(C(C)c4ccc(C(F)(F)F)cc4F)c3)cc(=O)[nH]2)cc1OC (single isomer, unassigned) [Example 66] , log10(Ki) reported as -0.10

Entry CCCC(c1ccc(C(F)(F)F)cc1)n1cc(-c2cc(=O)[nH]c(C)n2)cn1 (stereo not shown) , log10(Ki) reported as 2.39

Entry COc1ccc(Cc2nc(-c3cnn(C(C)c4ccc(C(F)(F)F)cc4F)c3)cc(=O)[nH]2)cc1 (single isomer, unassigned) [Example 139] , log10(Ki) reported as 1.28

Entry Cc1nc(-n2cc(CN3CCC(C(F)(F)F)CC3)cn2)cc(=O)[nH]1 , log10(Ki) reported as 4.69

----------
# experimental system: human PDE2A1 (Homo sapiens)
# Construct: GST; purchased BPS Bioscience (San Diego, Calif.) 60020; host or cells: insect cells
# Sequence (O00408 1-920 isoform O00408-2): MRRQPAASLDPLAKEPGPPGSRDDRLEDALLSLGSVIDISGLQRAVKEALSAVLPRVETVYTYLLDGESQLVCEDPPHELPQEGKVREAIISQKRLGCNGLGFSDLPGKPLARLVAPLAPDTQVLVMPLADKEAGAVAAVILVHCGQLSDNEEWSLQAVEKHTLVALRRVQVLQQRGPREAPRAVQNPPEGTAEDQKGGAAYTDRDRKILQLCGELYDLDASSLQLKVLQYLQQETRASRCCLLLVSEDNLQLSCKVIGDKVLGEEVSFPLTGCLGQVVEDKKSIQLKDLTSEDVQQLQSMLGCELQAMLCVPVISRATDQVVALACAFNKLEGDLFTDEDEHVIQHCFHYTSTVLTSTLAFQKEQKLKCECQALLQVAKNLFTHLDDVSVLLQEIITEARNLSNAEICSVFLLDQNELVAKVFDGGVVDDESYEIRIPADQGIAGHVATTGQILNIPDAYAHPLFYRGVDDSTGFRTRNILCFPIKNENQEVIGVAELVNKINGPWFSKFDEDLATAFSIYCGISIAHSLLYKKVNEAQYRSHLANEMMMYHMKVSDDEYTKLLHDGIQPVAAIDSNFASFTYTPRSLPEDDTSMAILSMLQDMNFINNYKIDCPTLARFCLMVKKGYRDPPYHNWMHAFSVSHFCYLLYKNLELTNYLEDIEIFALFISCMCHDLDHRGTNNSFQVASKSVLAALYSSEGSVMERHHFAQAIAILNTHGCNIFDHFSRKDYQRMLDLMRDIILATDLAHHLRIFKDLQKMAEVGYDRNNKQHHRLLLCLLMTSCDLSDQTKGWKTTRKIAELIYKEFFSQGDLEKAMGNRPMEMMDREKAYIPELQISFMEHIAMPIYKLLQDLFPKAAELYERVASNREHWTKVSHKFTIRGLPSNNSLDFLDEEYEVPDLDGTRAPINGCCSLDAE
# run description: PDE2 IMAP FP inhibition assay, human enzyme (PDE selectivity panel format)
# Format: biochemical
# condition: Lab A; read-out: Human PDE2 Ki (nM) Lab A
measured quantity: Ki (nM)
Give your result in nM as a bare value.

Consider the reported Ki for these molecules:
{"columns": ["molecule", "experimental system", "units symbol", "Ki"],
 "data": [
  ["Cc1nc(-c2cnn(C(C)c3ccc(C(F)(F)F)cc3C)c2)cc(=O)[nH]1 (single isomer, unassigned) [Example 57]", "human PDE2A1 (Homo sapiens)", "nM", 16.4],
  ["Cc1nc(-c2cnn(C(C)c3ccc(C4CC4)cc3Cl)c2)cc(=O)[nH]1 (single isomer, unassigned) [Example 107]", "human PDE2A1 (Homo sapiens)", "nM", 9.4],
  ["Cc1ccc(C(C)n2cc(-c3cc(=O)[nH]c(C)n3)cn2)cc1 (stereo not shown) [Example 153]", "human PDE2A1 (Homo sapiens)", "nM", 1240],
  ["Cc1nc(-c2cn(C(C)c3ccc(C(F)(F)F)cc3F)nc2C)cc(=O)[nH]1 (single isomer, unassigned) [Example 70]", "human PDE2A1 (Homo sapiens)", "nM", 312]
]}

Entry COc1ccc(Cc2nc(-c3cnn(C(C)c4ccc(C(F)(F)F)cc4F)c3)cc(=O)[nH]2)cc1F (single isomer, unassigned) [Example 147] , Ki reported as 3.3

Entry CCc1nc(-c2cnn(C(C)c3ccc(C(F)(F)F)cc3F)c2)cc(=O)[nH]1 (single isomer, unassigned) [Example 85] , Ki reported as 10.4

Entry CCc1ccc(C(CO)n2cc(-c3cc(=O)[nH]c(C)n3)cn2)c(F)c1 (single isomer, unassigned) [Example 111] , Ki reported as 42.5

Entry Cc1nc(-n2cc([C@H](C)c3ccc(C(F)(F)F)cc3)cn2)cc(=O)[nH]1 (single isomer, unassigned) [Example 4] , Ki reported as 18.2

Entry Cc1nc(-c2cnn(C(C)c3ccc(CC(F)(F)F)cc3C)c2)cc(=O)[nH]1 (single isomer, unassigned) [Example 106] , Ki reported as 710

Entry COc1cc(C(F)(F)F)ccc1[C@@H](C)n1cc(-c2cc(=O)[nH]c(C)n2)cn1 (single isomer, unassigned) [Example 2] , Ki reported as 41.5

Entry COc1ccc(Cc2nc(-c3cnn(C(C)c4ccc(C(F)(F)F)cc4F)c3)cc(=O)[nH]2)cc1 (single isomer, unassigned) [Example 138] , Ki reported as 7.1

Entry CCc1ccc([C@](C)(O)c2cnn(-c3cc(=O)[nH]c(C)n3)c2)c(F)c1 (single isomer, unassigned) [Example 11] , Ki reported as 42.5

Entry CCc1ccc(C(C)n2cc(-c3cc(=O)[nH]c(C)n3)cn2)c(F)c1 (single isomer, unassigned) [Example 101] , Ki reported as 38.5

Entry Cc1nc(-c2cnn(C3(c4ccc(C(F)(F)F)cc4F)CCC3)c2)cc(=O)[nH]1 [Example 37] , Ki reported as 7.9

Entry COc1ccc(Cc2nc(-c3cnn(C(C)c4ccc(C(F)(F)F)cc4)c3)cc(=O)[nH]2)cc1OC (single isomer, unassigned) [Example 61] , Ki reported as 2.4

Entry COc1cc(Cc2nc(-c3cnn(C(C)c4ccc(C(F)(F)F)cc4F)c3)cc(=O)[nH]2)ccc1F (single isomer, unassigned) [Example 142] , Ki reported as 3.5

Entry CCc1ccc(C(CO)c2cnn(-c3cc(=O)[nH]c(C)n3)c2)c(Cl)c1 (single isomer, unassigned) [Example 120] , Ki reported as 321

Entry Cc1nc(-c2cn(C(C)c3ccc(C(F)(F)F)cc3F)nc2C)cc(=O)[nH]1 (single isomer, unassigned) [Example 69] , Ki reported as 32.6
